Values compiled from patent US12383631.

TARGET: T1, IL-18 receptor (IL-18Rα/IL-18Rβ) on cells (HEK-Blue IL18R reporter cells, NK-92, KG-1) (human, UniProt Q13478 19-541; O95256 20-599)
T1 sequence (looked up) 1: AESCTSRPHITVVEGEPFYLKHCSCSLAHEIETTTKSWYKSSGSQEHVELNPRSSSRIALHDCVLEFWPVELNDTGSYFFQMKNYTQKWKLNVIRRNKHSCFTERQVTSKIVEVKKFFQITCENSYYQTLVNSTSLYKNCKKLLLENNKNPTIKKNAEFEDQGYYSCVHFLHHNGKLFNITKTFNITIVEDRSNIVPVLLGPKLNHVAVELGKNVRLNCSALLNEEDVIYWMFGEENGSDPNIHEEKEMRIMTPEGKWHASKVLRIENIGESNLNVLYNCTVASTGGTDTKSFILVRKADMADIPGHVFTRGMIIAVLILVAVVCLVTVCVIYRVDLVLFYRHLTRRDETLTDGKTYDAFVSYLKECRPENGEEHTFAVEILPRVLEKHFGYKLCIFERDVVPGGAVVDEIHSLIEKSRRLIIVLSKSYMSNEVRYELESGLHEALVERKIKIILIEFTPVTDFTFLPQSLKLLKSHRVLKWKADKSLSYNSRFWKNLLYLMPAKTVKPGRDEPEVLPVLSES
T1 sequence (looked up) 2: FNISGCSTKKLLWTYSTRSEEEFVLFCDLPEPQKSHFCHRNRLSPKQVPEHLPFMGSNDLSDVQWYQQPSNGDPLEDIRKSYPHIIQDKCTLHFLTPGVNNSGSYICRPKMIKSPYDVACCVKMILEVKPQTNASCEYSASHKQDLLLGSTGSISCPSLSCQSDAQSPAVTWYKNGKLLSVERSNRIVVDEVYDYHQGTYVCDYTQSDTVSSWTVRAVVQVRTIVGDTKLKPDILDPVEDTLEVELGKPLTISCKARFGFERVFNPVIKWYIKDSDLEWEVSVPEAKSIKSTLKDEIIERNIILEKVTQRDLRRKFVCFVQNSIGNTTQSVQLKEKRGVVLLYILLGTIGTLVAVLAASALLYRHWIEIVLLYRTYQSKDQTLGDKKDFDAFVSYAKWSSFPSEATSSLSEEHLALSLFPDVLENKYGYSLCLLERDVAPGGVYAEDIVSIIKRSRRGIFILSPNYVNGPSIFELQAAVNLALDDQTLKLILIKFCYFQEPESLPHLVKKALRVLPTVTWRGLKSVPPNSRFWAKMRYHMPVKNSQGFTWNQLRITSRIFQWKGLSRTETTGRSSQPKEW
METHOD SUMMARY: cell-based or functional assay
MEASURED PARAMETER: EC50, IFNγ stimulation, NK92 cells (nM)
The reply should contain only the number, in nM.

binder="IL-18 polypeptide of SEQ ID NO: 49 (E06K, K53A, S55A, C38S, C68S, C76S, C127S, K70C) (ligand) YFGKLKSKLSVIRNLNDQVLFIDQGNRPLFEDMTDSDSRDNAPRTIFIISMYADAQPRGMAVTISVKSECISTLSSENKIISFKEMNPPDNIKDTKSDIIFFQRSVPGHDNKMQFESSSYEGYFLASEKERDLFKLILKKEDELGDRSIMFTVQNED" measured_result=58.5
binder="IL-18 polypeptide of SEQ ID NO: 50 (E06K, K53A, T63A) (ligand) YFGKLKSKLSVIRNLNDQVLFIDQGNRPLFEDMTDSDCRDNAPRTIFIISMYADSQPRGMAVAISVKCEKISTLSCENKIISFKEMNPPDNIKDTKSDIIFFQRSVPGHDNKMQFESSSYEGYFLACEKERDLFKLILKKEDELGDRSIMFTVQNED" measured_result=0.0268
binder="IL-18 polypeptide C162 (ligand, also called K8E, V11I, C38A, C76A, Q103R, C127A) YFGKLESELSIIRNLNDQVLFIDQGNRPLFEDMTDSDARDNAPRTIFIISMYKDSQPRGMAVTISVKCEKISTLSAENKIISFKEMNPPDNIKDTKSDIIFFRRSVPGHDNKMQFESSSYEGYFLAAEKERDLFKLILKKEDELGDRSIMFTVQNED" measured_result=0.061
binder="IL-18 polypeptide C146 (SEQ ID NO: 68) (ligand, also called V11I, C38A, M51G, K53A, C76A, C127A) YFGKLESKLSIIRNLNDQVLFIDQGNRPLFEDMTDSDARDNAPRTIFIISGYADSQPRGMAVTISVKCEKISTLSAENKIISFKEMNPPDNIKDTKSDIIFFQRSVPGHDNKMQFESSSYEGYFLAAEKERDLFKLILKKEDELGDRSIMFTVQNED" measured_result=0.037

Could you now look at the following binder, please?
Recorded EC50, IFNγ stimulation, NK92 cells of IL-18 polypeptide of SEQ ID NO: 54 (E06K, K53A, C38S, C68S, C76S, C127S, K70C) (ligand) YFGKLKSKLSVIRNLNDQVLFIDQGNRPLFEDMTDSDSRDNAPRTIFIISMYADSQPRGMAVTISVKSECISTLSSENKIISFKEMNPPDNIKDTKSDIIFFQRSVPGHDNKMQFESSSYEGYFLASEKERDLFKLILKKEDELGDRSIMFTVQNED , please.
0.962
